Below are Ki values for Serine/threonine-protein kinase pim-1 (Homo sapiens, UniProt P11309) collected from several publications.
Attribute Measured: Ki (nM)

[[record]]
smiles_representation = "CCn1cc(-c2cc3c(-c4cccc(N5CCC[C@](C)(O)C5)n4)n[nH]c3cn2)cn1"
attribute_measured = "Ki"
unit_text = "nM"
meas_value = 0.0721

[[record]]
smiles_representation = "C=C(C)c1nc(C(=O)Nc2cnccc2N2CCC[C@H](N)C2)c(N)s1"
attribute_measured = "Ki"
unit_text = "nM"
meas_value = 18.2

[[record]]
smiles_representation = "Cn1ncc(NC(=O)c2nc(-c3cccc(C#N)n3)sc2N)c1N1CC[C@@H](N)CC(F)(F)C1"
attribute_measured = "Ki"
unit_text = "nM"
meas_value = 0.08

[[record]]
smiles_representation = "Cc1ccc(-c2n[nH]c3cnc(-c4cccnc4)cc23)nc1N1CCN(C)CC1"
attribute_measured = "Ki"
unit_text = "nM"
meas_value = 0.032

[[record]]
smiles_representation = "Nc1sc(-c2ccccc2F)nc1C(=O)Nc1cnccc1N1C[C@@H](N)C[C@@H](F)C1"
attribute_measured = "Ki"
unit_text = "nM"
meas_value = 1.34

[[record]]
smiles_representation = "Cn1cc(-c2cc3c(-c4ccc(Br)c(N5CCN(CCS(C)(=O)=O)C(C)(C)C5)n4)n[nH]c3cn2)cn1"
attribute_measured = "Ki"
unit_text = "nM"
meas_value = 0.259

[[record]]
smiles_representation = "Cn1ncc(NC(=O)c2nc(-c3cncc(F)c3)sc2N)c1N1CCC[C@H](N)CC1"
attribute_measured = "Ki"
unit_text = "nM"
meas_value = 4.25

[[record]]
smiles_representation = "CCn1cc(-c2cc3c(-c4cccc(N5CCNCC(F)(F)C5)n4)n[nH]c3cn2)cn1"
attribute_measured = "Ki"
unit_text = "nM"
meas_value = 0.029


---

Below are pKi measurements against Serine/threonine-protein kinase pim-1 (Homo sapiens) drawn from the literature.
pKi: −log10 of the molar value.
Attribute Measured: pKi

[[record]]
compound = "C=Cc1ccc(-c2n[nH]c3cnc(-c4cnn(C)c4)cc23)nc1N1CCC[C@H](N)C1"
meas_value = 10.44

[[record]]
compound = "Nc1sc(-c2ccc(F)cc2F)nc1C(=O)Nc1cnccc1N1CCC[C@H](N)C1"
meas_value = 10.44

[[record]]
compound = "Cn1ncc(NC(=O)c2nc(-c3c(F)cccc3F)sc2N)c1N1CCC[C@H](N(CCO)CCO)CC1"
meas_value = 9.70

[[record]]
compound = "COC1(C)CC(N)CCN(c2c(NC(=O)c3nc(-c4ccncc4F)sc3N)cnn2C)C1 (centres unmarked)"
meas_value = 9.67

[[record]]
compound = "CCCCOc1ccc(F)c(-c2nc(C(=O)Nc3cnccc3N3CCC[C@H](N)C3)c(N)s2)c1F"
meas_value = 9.99

[[record]]
compound = "N[C@@H]1CCN(c2cccc(-c3n[nH]c4cnc(-c5cccnc5)cc34)n2)C1"
meas_value = 9.73

[[record]]
compound = "Cn1ncc(NC(=O)c2nc(-c3c(F)cccc3F)sc2N)c1N1CCC2(CCNC2=O)CC1"
meas_value = 9.41

[[record]]
compound = "Nc1sc(-c2ccccc2)nc1C(=O)Nc1cnccc1N1CCC[C@H](N)C1"
meas_value = 10.04


---

log10 of Ki for Serine/threonine-protein kinase pim-1 (Homo sapiens, UniProt P11309), merged from several publications.
Attribute Measured: log10 of Ki (log10 of the value in nM)

[[record]]
smiles_representation = "NCC1CCN(c2cncc(-c3n[nH]c4cnc(-c5cccnc5)cc34)c2)CC1"
meas_value = -0.01

[[record]]
smiles_representation = "Cn1cc(NC(=O)c2nc(-c3c(F)cccc3F)sc2N)cn1"
meas_value = 1.20

[[record]]
smiles_representation = "N#CCc1n[nH]c2cnc(-c3cn[nH]c3)cc12"
meas_value = 2.51

[[record]]
smiles_representation = "Cc1ccc(-c2n[nH]c3cnc(-c4cnn(C)c4)cc23)nc1N1CCC[C@H](N)C1"
meas_value = -1.89

[[record]]
smiles_representation = "Cc1n[nH]c2cnc(-c3cncc(N4CCC[C@H](N)C4)n3)cc12"
meas_value = 0.68

[[record]]
smiles_representation = "c1cncc(-c2cc3c(-c4cccc(N5CCC(C6CCNCC6)CC5)n4)n[nH]c3cn2)c1"
meas_value = -1.15

[[record]]
smiles_representation = "N[C@H]1CCCN(Cc2n[nH]c3cnc(-c4cn[nH]c4)cc23)C1"
meas_value = 3.60

[[record]]
smiles_representation = "Cn1ncc(NC(=O)c2nc(-c3c(F)ccc(I)c3F)sc2N)c1N1CC[C@@H](N)CC(F)(F)C1"
meas_value = -2.70

